The compounds listed here are annotated with their IC50.
tested-on: CRTH2 (KB8 cells) (Homo sapiens, UniProt Q9Y5Y4)
Construct: host or cells: KB8 cells (human CRTH2 expression cell)
Sequence (Q9Y5Y4 1-395): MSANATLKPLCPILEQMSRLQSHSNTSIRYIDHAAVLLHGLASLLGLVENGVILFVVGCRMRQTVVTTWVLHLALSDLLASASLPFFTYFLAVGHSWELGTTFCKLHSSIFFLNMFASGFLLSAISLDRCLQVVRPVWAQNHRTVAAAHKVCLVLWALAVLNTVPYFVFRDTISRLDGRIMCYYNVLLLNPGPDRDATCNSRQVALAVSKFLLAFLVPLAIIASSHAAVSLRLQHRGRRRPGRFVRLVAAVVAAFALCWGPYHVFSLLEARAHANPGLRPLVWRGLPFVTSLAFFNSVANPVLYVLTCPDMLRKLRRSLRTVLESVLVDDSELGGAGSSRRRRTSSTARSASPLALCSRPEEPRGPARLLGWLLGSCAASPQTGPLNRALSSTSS
method-notes: CRTH2 antagonist test (PGD2-induced intracellular calcium ion concentration increase in KB8 cells)
Format: cell-based
measurement-parameters: PGD2 final concentration 100 nM, Fluo-4-AM fluorescence, read-out: antagonist activity (IC50 value, inhibition of calcium ion concentration increase)

compound="CC(C(=O)O)c1cnc(Cc2ccc(C(=O)NCCc3ccc(Cl)cc3)cc2)c2ccccc12 (stereo not shown) [Example 254]" value="500 to 1000 nM"
compound="COc1ccc(/C=C/C(=O)Nc2ccc(C(=O)c3ncc(CC(=O)O)c4ccccc34)cc2)cc1 [Example 84]" value="< 50 nM"

Q: Short answer please: IC50, CRTH2 (KB8 cells) (Homo sapiens, UniProt Q9Y5Y4), entry O=C(O)Cc1cnc(Cc2ccc(C(=O)NCCc3csc4ccccc34)cc2)c2ccccc12 [Example 230]
Ans: < 50 nM

Q: Can you check O=C(O)Cc1cnc(C(=O)c2ccc(NC(=O)OCc3ccc(Cl)c(Cl)c3)cc2)c2ccccc12 [Example 131] next?
Ans: < 50 nM
